Where these numbers come from: patent US20160297892A1

Target: T1, EGF domain 3 and 4 of recombinant human Protein S (human, UniProt P07225 201-286, limits assumed)
T1 construct: domain: EGF domain 3 and 4; also called hEGF3-4
T1 sequence (looked up): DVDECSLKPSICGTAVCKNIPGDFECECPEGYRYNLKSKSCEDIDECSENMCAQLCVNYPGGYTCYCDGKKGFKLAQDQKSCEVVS
Assay: ELISA, calcium-free TBS;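 also: binding of mouse antibodies detected by ELISA with an HRP-conjugated goat anti-mouse IgG secondary and TMB substrate development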
RECORDED METRIC: binding result

| BINDER | TEST VALUE |
| --- | --- |
| M-hProtS-6F128A2 monoclonal antibody (antibody, mouse IgG1, V domains shown, Tested as antibody purified from hybridoma supernatant; mouse IgG1, kappa) VL: SIVMTQTPKFLLVSAGDRVTITCKASQSVSNDVAWYQQKPGQSPKLLIYYASNRYTGVPDRFTGSGYGTDFTFTISTVQAEDLAVYFCQQDYSSPYTFGGGTKLEIKR V domain: QVQLQQPGAELVRPGASVKLSCKASGYTFTSYWINWVKQRPEQGLEWIGRIDPYDSETHYNQKFKDKAILTVDKSSSTAYMQLSSLTSEDSAVYYCARWGGSGYAMDYWGQGTSATVSS | no binding |
| M-hProtS-6F265A1 monoclonal antibody (antibody, mouse IgG1, V domains shown, Tested as antibody purified from hybridoma supernatant; mouse IgG1, kappa) VH: QVQLKESGPGLVAPSQSLSITCTVSGFSLTSYGVHWVRQPPGKGLGWLGVIWAGGRTDYNSALMSRLSISKDNSKSQVFLKMNSLQTDDTAIYYCARDYGNYNYAMDYWGQGISVTVSS VL: ETTVTQSPASLSMAIGEKVTIRCITSTDIDDDVNWYQQKPGEPPKLLISEGNILRPGVPSRFSSSGYGTDFVFSIENMLSEDVGDYYCLQSDTLPTFGGGTKLEIKR | no binding |
